# ASSAYED_SYSTEM: C17-C20 lyase (Homo sapiens)
# Construct: The microsomal pellet was then resuspended in 50mM sodium phosphate pH 7.4/glycerol (3/1 v/v) and stored in aliquots in liquid nitrogen; from tissue; host or cells: human testis microsomes
# Sequence (P05093 1-508): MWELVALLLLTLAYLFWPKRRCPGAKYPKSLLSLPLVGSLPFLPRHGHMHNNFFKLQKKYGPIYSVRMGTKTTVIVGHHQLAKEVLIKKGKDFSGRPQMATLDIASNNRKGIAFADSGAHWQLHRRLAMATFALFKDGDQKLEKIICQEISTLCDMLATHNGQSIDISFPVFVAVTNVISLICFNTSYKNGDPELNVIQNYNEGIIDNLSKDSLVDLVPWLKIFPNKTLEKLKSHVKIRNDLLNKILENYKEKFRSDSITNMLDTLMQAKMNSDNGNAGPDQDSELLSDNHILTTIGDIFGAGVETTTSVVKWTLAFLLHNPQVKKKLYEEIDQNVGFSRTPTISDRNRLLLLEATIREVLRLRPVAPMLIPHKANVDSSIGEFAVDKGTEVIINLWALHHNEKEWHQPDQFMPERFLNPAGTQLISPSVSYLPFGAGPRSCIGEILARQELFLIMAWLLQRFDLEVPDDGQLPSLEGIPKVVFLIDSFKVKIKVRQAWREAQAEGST
# EXPERIMENTAL_PROTOCOL: Determination of C17-C20 lyase (human testicular microsomes, 3H-17α-hydroxyprogesterone substrate, HPLC)
# Format: biochemical
OUTCOME_MEASURE: IC50 (nM)
Give just the numeric value; nM need not be written.

Here's what some known entries look like.
compound=C[C@]12CCC(=O)C[C@@H]1CC[C@@H]1[C@@H]2CC[C@]2(C)C(c3cccnc3)=CC[C@@H]12 assayed_system="C17-C20 lyase (Homo sapiens)" recorded_result=3
compound=C[C@]12CC[C@@H](O)C[C@@H]1CC[C@@H]1[C@@H]2CC[C@]2(C)C(c3cccnc3)=CC[C@@H]12 assayed_system="C17-C20 lyase (Homo sapiens)" recorded_result=2.5

API: the following record is the query input.
Value lookup for IC50; key = C[C@]12CC[C@H](O)CC1=CC[C@@H]1[C@@H]2CC[C@]2(C)C(c3ccccn3)=CC[C@@H]12 [Example 2-Pyridyl, reference compound]
130

---

# ASSAYED_SYSTEM: C17-C20 lyase (Homo sapiens)
# Construct: The microsomal pellet was then resuspended in 50mM sodium phosphate pH 7.4/glycerol (3/1 v/v) and stored in aliquots in liquid nitrogen; from tissue; host or cells: human testis microsomes
# Sequence (P05093 1-508): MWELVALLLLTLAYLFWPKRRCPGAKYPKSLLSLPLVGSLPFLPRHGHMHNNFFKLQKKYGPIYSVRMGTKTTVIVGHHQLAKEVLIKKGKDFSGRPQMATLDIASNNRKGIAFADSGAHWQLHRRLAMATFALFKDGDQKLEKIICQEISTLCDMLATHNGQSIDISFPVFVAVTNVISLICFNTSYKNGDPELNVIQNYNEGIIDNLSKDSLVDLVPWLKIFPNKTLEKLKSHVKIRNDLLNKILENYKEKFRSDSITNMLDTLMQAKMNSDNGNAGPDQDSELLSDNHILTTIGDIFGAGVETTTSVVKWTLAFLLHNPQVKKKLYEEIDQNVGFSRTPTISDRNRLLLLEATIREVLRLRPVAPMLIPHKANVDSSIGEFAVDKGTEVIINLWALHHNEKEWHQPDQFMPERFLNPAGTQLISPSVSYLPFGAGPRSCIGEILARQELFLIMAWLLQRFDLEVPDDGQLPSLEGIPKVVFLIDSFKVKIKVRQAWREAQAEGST
# EXPERIMENTAL_PROTOCOL: Determination of C17-C20 lyase (human testicular microsomes, 3H-17α-hydroxyprogesterone substrate, HPLC)
# Format: biochemical
# EXPERIMENTAL_CONTEXT: 25nM lyase; read-out: IC50 (µM) Lyase
OUTCOME_MEASURE: IC50

compound="C[C@]12CC[C@H](O)CC1=CC[C@@H]1[C@@H]2CC[C@]2(C)C(c3ccncc3)=CC[C@@H]12 [Example 4-pyridyl, reference compound]" outcome_measure=IC50 recorded_result="2 µM"

Value lookup for IC50; key = C[C@]12CC[C@H](O)CC1=CC[C@@H]1[C@@H]2CC[C@]2(C)C(Cc3ccccn3)=CC[C@@H]12 [Example 2-picolyl, reference compound]
> 10 µM

---

# ASSAYED_SYSTEM: C17-C20 lyase (Homo sapiens)
# Construct: The microsomal pellet was then resuspended in 50mM sodium phosphate pH 7.4/glycerol (3/1 v/v) and stored in aliquots in liquid nitrogen; from tissue; host or cells: human testis microsomes
# Sequence (P05093 1-508): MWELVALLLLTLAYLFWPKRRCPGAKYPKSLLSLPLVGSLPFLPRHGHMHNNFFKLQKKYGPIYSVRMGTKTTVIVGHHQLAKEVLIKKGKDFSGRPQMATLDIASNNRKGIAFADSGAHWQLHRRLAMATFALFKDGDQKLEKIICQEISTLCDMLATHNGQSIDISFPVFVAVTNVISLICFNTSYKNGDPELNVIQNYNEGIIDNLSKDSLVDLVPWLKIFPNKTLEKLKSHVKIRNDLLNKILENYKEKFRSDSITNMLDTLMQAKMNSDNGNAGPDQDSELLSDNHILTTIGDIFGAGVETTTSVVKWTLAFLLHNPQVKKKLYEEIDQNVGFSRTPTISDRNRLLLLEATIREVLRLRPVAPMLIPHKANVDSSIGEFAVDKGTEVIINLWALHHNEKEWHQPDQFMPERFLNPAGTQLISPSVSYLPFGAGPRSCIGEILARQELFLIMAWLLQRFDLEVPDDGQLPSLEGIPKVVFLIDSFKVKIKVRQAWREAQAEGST
# EXPERIMENTAL_PROTOCOL: Determination of C17-C20 lyase (human testicular microsomes, 3H-17α-hydroxyprogesterone substrate, HPLC)
# Type: biochemical
# EXPERIMENTAL_CONTEXT: approx. 4nM enzyme; read-out: IC50 (µM) Lyase
OUTCOME_MEASURE: IC50 (µM)
Give just the numeric value; µM need not be written.

Here's what some known entries look like.
molecule="C[C@]12CCC(=O)C=C1[C@H](F)C[C@@H]1[C@@H]2CC[C@]2(C)C(c3cccnc3)=CC[C@@H]12 [Ex. 12]" recorded_result=0.0022
molecule="C[C@]12CC[C@H](O)CC1=CC[C@@H]1[C@@H]2CC[C@]2(C)C(c3cccnc3)=CC[C@@H]12 [Ex. 2, 17-(3-Pyridyl)androsta-5,16-dien-3β-ol]" recorded_result=0.0029
molecule="C[C@]12CCC(=O)C=C1[C@@H](F)C[C@@H]1[C@@H]2CC[C@]2(C)C(c3cccnc3)=CC[C@@H]12 [Ex. 13]" recorded_result=0.0032

Value lookup for IC50; key = C[C@]12CCC(=O)C=C1CC[C@@H]1[C@@H]2C(=O)C[C@]2(C)C(c3cccnc3)=CC[C@@H]12 [Ex. 10]
0.0025

---

# ASSAYED_SYSTEM: C17-C20 lyase (Homo sapiens)
# Construct: The microsomal pellet was then resuspended in 50mM sodium phosphate pH 7.4/glycerol (3/1 v/v) and stored in aliquots in liquid nitrogen; from tissue; host or cells: human testis microsomes
# Sequence (P05093 1-508): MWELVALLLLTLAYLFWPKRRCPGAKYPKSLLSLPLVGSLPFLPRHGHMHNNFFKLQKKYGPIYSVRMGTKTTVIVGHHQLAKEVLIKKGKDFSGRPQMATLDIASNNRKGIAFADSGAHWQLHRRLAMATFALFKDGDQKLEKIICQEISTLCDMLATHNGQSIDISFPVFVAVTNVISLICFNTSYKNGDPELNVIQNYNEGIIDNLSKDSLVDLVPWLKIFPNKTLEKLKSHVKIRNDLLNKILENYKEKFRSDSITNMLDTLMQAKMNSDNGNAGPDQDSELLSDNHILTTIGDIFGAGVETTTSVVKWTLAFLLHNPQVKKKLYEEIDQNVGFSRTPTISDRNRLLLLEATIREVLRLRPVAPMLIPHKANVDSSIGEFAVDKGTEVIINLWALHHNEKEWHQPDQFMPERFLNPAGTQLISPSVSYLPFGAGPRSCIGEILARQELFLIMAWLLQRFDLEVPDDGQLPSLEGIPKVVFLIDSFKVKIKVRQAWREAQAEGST
# EXPERIMENTAL_PROTOCOL: Determination of C17-C20 lyase (human testicular microsomes, 3H-17α-hydroxyprogesterone substrate, HPLC)
# Type: biochemical
# EXPERIMENTAL_CONTEXT: approx. 4nM enzyme; read-out: IC50 (µM) Lyase
Each entry below carries its reported IC50.
# answer = value followed by unit

Here's what some known entries look like.
compound_structure=C[C@]12CC[C@@H]3c4ccc(O)cc4CC[C@H]3[C@@H]1CC=C2c1cccnc1 recorded_result="0.0018 µM"
compound_structure=C[C@]12CCC(=O)C=C1CC[C@@H]1[C@@H]2CC[C@]2(C)C(c3cccnc3)=CC[C@@H]12 recorded_result="0.0021 µM"

API: the following record is the query input.
Value lookup for IC50; key = C[C@]12CCC=CC1=CC[C@@H]1[C@@H]2CC[C@]2(C)C(c3cccnc3)=CC[C@@H]12
0.0056 µM

// data source = patent EP0633893B1
